# Test system: PC-3
# experiment.summary: NCI tumour cell line growth inhibition, 48 h
Activity calls are given as the source filed them. No stated cut-off is given here; in the data, active = GI50 up to about 1.1 µM and inactive = higher.
The reader will find reported GI50 values listed item by item below.
quantity.name: GI50

| molecule | quantity.name | reading |
| --- | --- | --- |
| CC1C(NNc2ccccc2)Oc2cc3c(cc2C1c1ccccc1O)OCO3 (stereo not drawn) | GI50 | 3.2 µM (inactive) |
| CCN(CCCN(CC)C(=O)N[C@@H](Cc1ccccc1)C(=O)NC)C(=O)N[C@@H](Cc1ccccc1)C(=O)NC | GI50 | > 100 µM (inactive) |
| O=C(c1ccc([N+](=O)[O-])cc1)C(Br)C(Br)c1ccnc2ccccc12 (stereo not drawn) | GI50 | 7.29 µM (inactive) |

----------
# Test system: KM12
# experiment.summary: NCI tumour cell line growth inhibition, 48 h
Active and inactive are the calls of the source. No stated cut-off is given here; in the data, active = GI50 up to about 1.1 µM and inactive = higher.
The reader will find reported GI50 values listed item by item below.
quantity.name: GI50

| compound | reading |
| --- | --- |
| Cc1noc(C)c1/N=N/c1ccc2nonc2c1N | > 100 µM (inactive) |
| Cc1ccc(N(C=O)c2c([N+](=O)[O-])cc([N+](=O)[O-])c3c2=[N+]([O-])CN=3)cc1 | 43.8 µM (inactive) |
| C[C@@H]1OC(=O)C[C@H]2CC(=O)N(CCc3cn(S(=O)(=O)C(F)(F)F)c4ccccc34)C[C@@H]21 | > 100 µM (inactive) |
| Cc1nc(-c2cc3cc(Cl)ccc3oc2=O)cc2c1c(=O)oc1ccc(Cl)cc12 | > 100 µM (inactive) |
| Cc1sc(NC=C2C(=O)CC(C)(C)CC2=O)nc1-c1ccccc1 | > 100 µM (inactive) |
| CC(NC(=O)Cc1ccccc1)NC(=O)C(C)C(=O)NCc1ccccc1 (stereo not drawn) | > 100 µM (inactive) |
| O=S(=O)(O)c1ccc2c(/N=N/c3c(O)ccc4ccccc34)cccc2c1 | > 100 µM (inactive) |
| Fc1c(F)c(F)c(CSc2nc3ccccc3[nH]2)c(F)c1F | > 100 µM (inactive) |
| CC[C@@H]1CC[C@@H]2[C@H](CC[C@]3(C)[C@@H](O)CC[C@@H]23)[C@H]1C(=O)O | > 100 µM (inactive) |
| CC(=O)n1cc(OP(=O)(Oc2ccccc2)Oc2ccccc2)c2ccccc21 | 35.6 µM (inactive) |
| c1ccc2oc(-c3ccc(-c4nc5ccccc5o4)c4c3CC4)nc2c1 | > 100 µM (inactive) |
| COc1cc(C=C(c2ccc(N(C)C)cc2)c2ccc(N(C)C)cc2)c2ccccc2c1OC | 38.4 µM (inactive) |
| CN(C)C/C=C(/c1ccc(Br)cc1)c1cccnc1 | 74.1 µM (inactive) |

----------
# Test system: Malme-3M
# experiment.summary: NCI tumour cell line growth inhibition, 48 h
The source made the active and inactive calls. Rule as the data show it: active = GI50 up to about 1.1 µM and inactive = higher.

| compound | GI50 |
| --- | --- |
| NC(CSCc1ccc(I)cc1)C(=O)O (stereo not given) | > 100 µM (inactive) |
| CN(C)/C=C/c1ccncc1 | > 100 µM (inactive) |
| CCCCCCCC(CC(=O)NC(CO)C(=O)NC(CO)CC(C)C)OC(=O)CC(CCCCCCC)OC(=O)CC(CCCCCCC)OC1OC(C)C(O)C(OC2OC(C)C(O)C(O)C2OC(C)=O)C1O (stereo not given) | 10.9 µM (inactive) |
| Cc1cc(C)c([S@@](=O)O[C@@H]2[C@H]3OC(C)(C)O[C@H]3O[C@@H]2[C@H]2COC(C)(C)O2)c(C)c1 | 25.5 µM (inactive) |
| COc1ccc2c(c1)N=C1CSC(c3ccccc3Cl)N1C2 (stereo not given) | 23.4 µM (inactive) |
| CN1C(=O)C(/C=N/NC(=O)c2cccnc2)C(N)N(C)C1=O (stereo not given) | > 100 µM (inactive) |
| COc1cc2c(cc1OC)C(OC)N(C)c1c-2ccc2cc3c(cc12)OCO3 (stereo not given) | 3.51 µM (inactive) |
| O=C(/C=C/c1ccccc1Cl)c1cccc2ccccc12 | 16.1 µM (inactive) |
| Cc1nc2c(Br)cc(Br)cc2c(=O)n1-c1ccccc1NC1OC(CO)C(O)C(O)C1O (stereo not given) | > 100 µM (inactive) |
| NCCC(N)C(=O)O (stereo not given) | > 100 µM (inactive) |
